Tested on: RXF 393
Test: Growth inhibition of human RXF 393 cells assessed as cell growth at 0.1 uM incubated for 48 hrs by sulforhodamine B assay relative to control
Assay type: functional
Details: read-out: Activity
Recorded growth at 0.1 µM values for a group of compounds are listed next.
readout.kind: growth at 0.1 µM (%)

compound=CN1CCc2nc3sc(C(N)=O)c(N)c3c(-c3cccs3)c2C1 measured_value=85
compound=COc1cccc(NC(=O)c2sc3nc4c(cc3c2N)CN(Cc2ccccc2)CC4)c1 measured_value=95
compound=Cc1ccc(NC(=O)c2sc3nc4c(cc3c2N)C(=O)CCC4)cc1C measured_value=82
compound=Cc1cc(C)c(NC(=O)c2sc3nc4c(cc3c2N)CN(Cc2ccccc2)CC4)c(C)c1 measured_value=89
compound=Nc1c(C(=O)Nc2ccccc2)sc2nc3c(cc12)CN(Cc1ccccc1)CC3 measured_value=94
compound=CCc1ccccc1NC(=O)c1sc2nc3c(cc2c1N)C(=O)CCC3 measured_value=66
compound=Cc1cccc(NC(=O)c2sc3nc4c(cc3c2N)C(=O)CCC4)c1 measured_value=69
compound=CCc1cccc(C)c1NC(=O)c1sc2nc3c(cc2c1N)C(=O)CCC3 measured_value=74

---

System: MDA-MB-468
Test: Growth inhibition of human MDA-MB-468 cells incubated for 48 hrs by sulforhodamine B assay
Type: functional
readout.kind: log10 of GI50 (log10 of the value in µM)

compound=Cc1cc(C)c(NC(=O)c2sc3nc4c(cc3c2N)CN(Cc2ccccc2)CC4)c(C)c1 target_under_test=MDA-MB-468 measured_value=0.25
compound=Cc1ccc(NC(=O)c2sc3nc4c(cc3c2N)C(=O)CCC4)cc1C target_under_test=MDA-MB-468 measured_value=-0.64
compound=CN1CCc2nc3sc(C(N)=O)c(N)c3c(-c3cccs3)c2C1 target_under_test=MDA-MB-468 measured_value=0.24
compound=Nc1c(C(=O)Nc2ccccc2)sc2nc3c(cc12)CN(Cc1ccccc1)CC3 target_under_test=MDA-MB-468 measured_value=1.23
compound=CCc1ccccc1NC(=O)c1sc2nc3c(cc2c1N)C(=O)CCC3 target_under_test=MDA-MB-468 measured_value=-0.68
compound=Cc1cccc(NC(=O)c2sc3nc4c(cc3c2N)C(=O)CCC4)c1 target_under_test=MDA-MB-468 measured_value=-0.84
compound=CCc1cccc(C)c1NC(=O)c1sc2nc3c(cc2c1N)C(=O)CCC3 target_under_test=MDA-MB-468 measured_value=-0.58
compound=COc1cccc(NC(=O)c2sc3nc4c(cc3c2N)CN(Cc2ccccc2)CC4)c1 target_under_test=MDA-MB-468 measured_value=0.41

---

System: M14
Test: Growth inhibition of human M14 cells assessed as cell growth at 10 uM incubated for 48 hrs by sulforhodamine B assay relative to control
Assay type: functional
Settings: read-out: Activity
Using growth at 10 µM as the sorting value, the categories are lower band (below 20%), central band (20% to below 90%), upper band (90% or more)

compound=CCc1ccccc1NC(=O)c1sc2nc3c(cc2c1N)C(=O)CCC3 assigned_category="lower band"
compound=CCc1cccc(C)c1NC(=O)c1sc2nc3c(cc2c1N)C(=O)CCC3 assigned_category="lower band"
compound=Cc1cccc(NC(=O)c2sc3nc4c(cc3c2N)C(=O)CCC4)c1 assigned_category="lower band"
compound=Cc1cc(C)c(NC(=O)c2sc3nc4c(cc3c2N)CN(Cc2ccccc2)CC4)c(C)c1 assigned_category="lower band"
compound=COc1cccc(NC(=O)c2sc3nc4c(cc3c2N)CN(Cc2ccccc2)CC4)c1 assigned_category="central band"
compound=Cc1cccc(NC(=O)c2sc3nc4c(cc3c2N)CN(Cc2ccccc2)CC4)c1 assigned_category="upper band"
compound=Cc1ccc(S(=O)(=O)n2ccc(-c3ccc(OCCCF)cc3)n2)cc1 assigned_category="upper band"
compound=COc1ccc(S(=O)(=O)n2ccc(-c3ccc4c(c3)CCC(C)(C)O4)n2)cc1 assigned_category="central band"
compound=Nc1c(C(=O)Nc2ccccc2)sc2nc3c(cc12)CN(Cc1ccccc1)CC3 assigned_category="central band"
compound=Cc1cc(C)cc(S(=O)(=O)n2ccc(-c3ccc4c(c3)CCC(C)(C)O4)n2)c1 assigned_category="central band"
compound=CC(C)N1CCc2nc3sc(C(=O)Nc4ccccc4)c(N)c3cc2C1 assigned_category="upper band"
compound=O=S(=O)(c1ccccc1)n1ccc(-c2ccc3c(c2)CCO3)n1 assigned_category="upper band"
